# tgt: human EP1 receptor (Homo sapiens)
# Construct: expressed in transfected cells; host or cells: HEK-293 cell membranes
# Sequence (P34995 1-402): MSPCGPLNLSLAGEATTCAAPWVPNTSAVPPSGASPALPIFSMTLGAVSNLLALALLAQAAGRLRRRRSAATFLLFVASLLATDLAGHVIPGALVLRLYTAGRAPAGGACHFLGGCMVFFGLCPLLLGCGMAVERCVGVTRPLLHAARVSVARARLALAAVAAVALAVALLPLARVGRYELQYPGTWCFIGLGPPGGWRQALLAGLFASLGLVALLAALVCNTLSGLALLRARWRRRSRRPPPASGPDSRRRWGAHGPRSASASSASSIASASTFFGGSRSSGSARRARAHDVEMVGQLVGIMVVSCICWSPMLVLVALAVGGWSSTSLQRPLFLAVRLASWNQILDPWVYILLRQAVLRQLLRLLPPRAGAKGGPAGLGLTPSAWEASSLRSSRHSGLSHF
# protocol: Human EP1 receptor radioligand binding assay
# measurement_conditions: transfected HEK-293 cell membranes, [3H]-PGE2 (10 nM), pH 6.0, 25 °C for 60 minutes
pKi: −log10 of the molar value.
result_type: pKi

Please give measured pKi of the following entry: COc1ccc2c(c1)[C@@H]1OCCC[C@@H]1[C@H](c1ccc(C(=O)O)cc1C)N2 [Example 5]
6.30 to 7.00
